- Tested on: Mtb H37Rv
- test_summary: MIC90 against nonreplicating (NR, 4-stress) Mtb H37Rv, with or without clavulanate
- Type: cell-based, Mycobacterium tuberculosis
- settings: 4-stress nonreplicating, clavulanate 4 μg/mL; Table S4
measurement_name: Mtb H37Rv NR + CLAV (MIC90)

Known results for molecules:
>  <molecule>
O=C(Cc1csc(=O)s1)N[C@@H]1C(=O)N2C(C(=O)O)=C(CSc3nnnn3CCO)CS[C@H]12 [TBBL-0000305]

>  <Mtb H37Rv NR + CLAV (MIC90)>
> 100 µM

$$$$
>  <molecule>
Cn1nnnc1SCC1=C(C(=O)O)N2C(=O)[C@@H](NC(=O)CSc3cc(Cl)ccc3Cl)[C@H]2SC1 [TBBL-0000446]

>  <Mtb H37Rv NR + CLAV (MIC90)>
> 100 µM

$$$$
>  <molecule>
Nc1nnc(SCC2=C(C(=O)O)N3C(=O)[C@@H](NC(=O)CSc4cc(Cl)ccc4Cl)[C@H]3SC2)s1 [TBBL-0000467]

>  <Mtb H37Rv NR + CLAV (MIC90)>
> 100 µM

$$$$
>  <molecule>
O=C(O)C1=C(CSc2cccc[n+]2[O-])CS[C@@H]2[C@H](NC(=O)C(F)c3ccccc3)C(=O)N12 (some centres unmarked) [TBBL-0000004]

>  <Mtb H37Rv NR + CLAV (MIC90)>
2.3 µM

$$$$
>  <molecule>
CC(=O)OC(C(=O)N[C@@H]1C(=O)N2C(C(=O)O)=C(CSc3cccc[n+]3[O-])CS[C@H]12)c1ccccc1 (some centres unmarked) [TBBL-0000007]

>  <Mtb H37Rv NR + CLAV (MIC90)>
2.5 µM

$$$$
>  <molecule>
O=C(Cc1cccs1)N[C@@H]1C(=O)N2C(C(=O)[O-])=C(C[n+]3ccccc3)CS[C@H]12 [TBBL-0000493]

>  <Mtb H37Rv NR + CLAV (MIC90)>
> 100 µM

$$$$
>  <molecule>
O=C(CSc1cccc[n+]1[O-])N[C@@H]1C(=O)N2C(C(=O)O)=C(CSc3cccc[n+]3[O-])CS[C@H]12 [TBBL-0000003]

>  <Mtb H37Rv NR + CLAV (MIC90)>
3.5 µM

$$$$
>  <molecule>
Cn1c(SCC2=C(C(=O)O)N3C(=O)[C@@H](NC(=O)Cc4ccccc4CN)[C@H]3SC2)nnc(O)c1=O [TBBL-0000460]

>  <Mtb H37Rv NR + CLAV (MIC90)>
85.6 µM

$$$$

Provide Mtb H37Rv NR + CLAV (MIC90) for all items below, preserving their order.
1. O=C(CCCC(NC(=O)c1ccc(Cl)cc1Cl)C(=O)O)N[C@@H]1C(=O)N2C(C(=O)O)=C(CSc3cccc[n+]3[O-])CS[C@H]12 (some centres unmarked) [TBBL-0000552]
2. CCc1cc[n+](CC2=C(C(=O)[O-])N3C(=O)[C@@H](NC(=O)Cc4cccs4)[C@H]3SC2)cc1 [TBBL-0000418]
3. Cc1nnc(SCC2=C(C(=O)O)N3C(=O)[C@@H](NC(=O)Cc4sc(=O)sc4C)[C@H]3SC2)s1 [TBBL-0000330]
4. Cn1nnnc1SCC1=C(C(=O)O)N2C(=O)[C@@H](NC(=O)Cc3ccc(C4=NCCCN4)cc3)[C@H]2SC1 [TBBL-0000309]
5. Cc1nnc(SCC2=C(C(=O)O)N3C(=O)[C@@H](NC(=O)CSc4cc(Cl)ccc4Cl)[C@H]3SC2)s1 [TBBL-0000415]
6. CC(O)Cn1nnnc1SCC1=C(C(=O)O)N2C(=O)[C@@H](NC(=O)Cc3csc(=O)s3)[C@H]2SC1 (some centres unmarked) [TBBL-0000325]

["2.1 µM", "> 100 µM", "> 100 µM", "> 100 µM", "> 100 µM", "> 100 µM"]
